Numbers sourced from the RNAGym collection of RNA variant scans (doi:10.7554/elife.80360).

B1: HDV Ribozyme (parent)
chain: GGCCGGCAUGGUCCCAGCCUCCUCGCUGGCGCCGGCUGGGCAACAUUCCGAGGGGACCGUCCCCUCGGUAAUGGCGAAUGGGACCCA

variants of: B1; assay: self-cleavage, relative activity (ratio to wild type); higher = more cleavage; co-transcriptional
Mark no (0) for self-cleavage values under 0.1, and yes (1) for everything at or above.

> print(dat)
      variant  classlabel
 1  A42U U65C     yes (1)
 2  C15U C86A     yes (1)
 3  C66U A87U     yes (1)
 4    G2A G6U      no (0)
 5  U27A A83C     yes (1)
 6  G10U A42G     yes (1)
 7   G5A C75G      no (0)
 8  A51G A78G     yes (1)
 9  G11U C24A     yes (1)
10  U12A A87G     yes (1)
11  G28A C49A     yes (1)
12  A78G G82C      no (0)
13  G54U A83C     yes (1)
14  G40C A78C     yes (1)
15  C14A A56C     yes (1)
16  G38U G52A     yes (1)
17  C14A G17A      no (0)
18  G17U U46A     yes (1)
19  C15U C48G     yes (1)
20  C26U C63U     yes (1)
21  G34C C75G     yes (1)
22  U37G C84A     yes (1)
23  A45G C57U     yes (1)
24  C44A A71U     yes (1)
25  G55U C85G     yes (1)
26  G17U C48U     yes (1)
27  U72A C85G     yes (1)
28  C26A C33A     yes (1)
29  C24A G29A     yes (1)
30   A8G G10U     yes (1)
31  C22G A83U      no (0)
32   C7A U60A     yes (1)
33  C57G G59U     yes (1)
34   C3A G53C     yes (1)
35  C22G C58A      no (0)
36  G25U A51C     yes (1)
37  G34C G73C     yes (1)
38  C64G A77U     yes (1)
39  C57G C66G     yes (1)
40  U23A A43C     yes (1)
41  C41G C75A     yes (1)
42  C36G C75G      no (0)
43  C64A A78G     yes (1)
44   G5C C24G      no (0)
